B1: CPEB3 Ribozyme (parent)
chain: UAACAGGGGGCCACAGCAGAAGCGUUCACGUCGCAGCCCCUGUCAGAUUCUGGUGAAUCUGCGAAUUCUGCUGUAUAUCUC

- Variants of: B1
- assay.name: self-cleavage, relative activity (ratio to wild type); higher = more cleavage; in vitro, sequencing
attribute.measured: self-cleavage
Just the number, please.

Guide cases for self-cleavage, answers given:
>  <mutation.key>
G9C A64G

>  <endpoint.result>
0.08

$$$$
>  <mutation.key>
C23G U69A

>  <endpoint.result>
0.12

$$$$
>  <mutation.key>
A13G C29A

>  <endpoint.result>
0.3

$$$$

# evaluate next
Specify reported self-cleavage for the variant shown: U54G A56G
0.46
